# Test system: TK-10 renal
# test: NCI-60 one-dose screen, 48 h (100 = growth as untreated, 0 = no growth, -100 = all killed)
# measurement context: 10 µM unless noted
Compounds without any hit were thinned out: in the full panel of roughly 83,000, 20% have a hit.
measurement name: growth (%)

N#Cc1c(-c2ccc(F)cc2)nc(N=Nc2c(O)[nH]c3ccc(Cl)cc23)nc1N1CCOCC1	11.6
COc1ccc(-c2nnc(N3CCN(C(=O)CN4CCN(c5ccccc5)CC4)CC3)nc2-c2ccc(OC)cc2)cc1	55.3
O=C(/C(=C/c1ccc([N+](=O)[O-])cc1)SCc1ccc(F)cc1)c1ccc(Cl)cc1	97.2
CC1(C)Cc2c(Br)c(Br)c(Br)c(OCC(O)CN3CCOCC3)c2O1 (stereo unspecified)	67
N#Cc1c(-c2ccc(Cl)cc2)cc(-c2cc3ccccc3o2)nc1SCC(=O)c1ccc(Cl)cc1	139
O=c1nc(-c2ccccc2)c2cc(-c3ccc(N4CCCC4)nc3)ccc2[nH]1	88.5
Fc1ccc(N/N=C/c2ccc(-n3cccn3)cc2)cc1	111
COc1ccc2oc(=O)cc(-c3nc4ccc(N)cc4[nH]3)c2c1	96.5
Cc1cc2ccccc2c[n+]1CC(=O)c1ccc(-c2ccccc2)cc1	68.5
CCc1c(C(=O)N[C@@H](C(=O)OCc2ccccc2)C(C)O)[nH]c2ccc(Cl)cc12 (stereo partly specified)	33.6
CCCCCCN1C(=O)CN=C1Nc1ccc2cc3ccc(NC4=NCC(=O)N4CCCCCC)cc3nc2c1	75.9

* * *

// reported growth for each item listed
# Test system: HOP-62 NSCLC
# test: NCI-60 one-dose screen, 48 h (100 = growth as untreated, 0 = no growth, -100 = all killed)
# measurement context: 10 µM unless noted
The panel holds about 83,000 compounds, 20% with a hit somewhere; the sample as a whole holds those more often.
measurement name: growth (%)

COc1ccc(Sc2[nH]c(C(C)=O)c3ccccc23)cc1	83.7
COc1cc(-c2csc(NC(=O)Nc3cc(Cl)cc(Cl)c3)n2)cc(OC)c1OC	-64.8
NCCN1CCNCC1	103
COc1cc(C(=O)N2CCN(c3ccccc3OC)CC2)c(NC(=O)c2cnccn2)cc1OCc1ccccc1	84.9

* * *

# Tested on: UACC-62 melanoma
# test: NCI-60 one-dose screen, 48 h (100 = growth as untreated, 0 = no growth, -100 = all killed)
# measurement context: 10 µM unless noted
This is part of a sample that, as a whole, favours compounds with a hit. Of some 83,000 tested, about 20% had one in any assay.
Label Yes when growth is strictly below 70%; otherwise label No.

Nc1c(C(=O)c2ccccc2)sc2nc(-c3cc4ccccc4o3)cc(-c3ccc(Cl)cc3)c12	No
CCCCCCC/C=C/[C@H]1O[C@]23C(=O)C[C@@]4(C[C@@H](OC5OC(CO)C(O)C(O)C5O)C[C@@H]4[C@H]2C=C1C)OC3=O (some centres undefined)	Yes
O=C(O)c1cn(C2CC2)c2cc(N3CCN(C(=O)CSc4nnc(-c5ccc(Cl)cc5)n4-c4ccccc4)CC3)c(F)cc2c1=O	No
Cc1nc2sc(C(=O)Nc3cccc4ccccc34)c(N)c2cc1C(C)O (centres undefined)	Yes
Cc1ccn2c3c(c(C(=O)O)c2c1)C(=O)c1ccccc1C3=O	Yes
Nc1ccccc1NS(=O)(=O)c1ccc(Cl)cc1	No
C=C1C(=O)O[C@H]2[C@H]1CC/C(COC(=O)N1CCC[C@H]1C(=O)Nc1ccc(OC)c(C(N)=O)c1O)=C\CC[C@@]1(C)O[C@@H]21	Yes
COc1cc(C2=NNC(c3ccc(N(C)C)cc3)C2)cc(OC)c1OC (centres undefined)	Yes
